Data provenance is ChEMBL document CHEMBL1139629.

# target: Prostaglandin E2 receptor EP2 subtype (Homo sapiens, UniProt P43116)
# Sequence (P43116 whole entry): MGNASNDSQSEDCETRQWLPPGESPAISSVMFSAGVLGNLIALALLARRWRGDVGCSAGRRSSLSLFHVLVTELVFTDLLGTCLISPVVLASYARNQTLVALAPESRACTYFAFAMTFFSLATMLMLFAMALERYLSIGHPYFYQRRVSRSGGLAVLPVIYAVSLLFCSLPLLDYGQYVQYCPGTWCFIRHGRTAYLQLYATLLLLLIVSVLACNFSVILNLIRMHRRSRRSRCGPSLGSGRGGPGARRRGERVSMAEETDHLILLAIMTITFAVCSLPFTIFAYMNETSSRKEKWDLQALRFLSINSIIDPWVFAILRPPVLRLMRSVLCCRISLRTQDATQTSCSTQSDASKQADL
measured.attribute: Ki

O=C(O)COc1cccc(C[C@@H]2CCCC=C2c2nc(-c3ccccc3)c(-c3ccccc3)o2)c1    > 1 µM

Problem: Dear colleague, I am looking for the recorded Ki of the following compound: O=C(O)COc1cccc2c1CCC[C@H]2N1CCC[C@@H]1c1nc(-c2ccccc2)c(-c2ccccc2)o1
Solution: > 1 µM

====

# Test system: Cell line
# measurement.protocol: Inhibition concentration against ADP-induced platelet aggregation using human platelet rich plasma
# Assay type: functional, cell-based
pIC50: −log10 of the molar value.
We use 7 as the dividing line for pIC50: on or above the line is 1, below is -1.

Problem: # check: pIC50 of O=C(O)COc1cccc2c1CCC(COC(=O)N(c1ccccc1)c1ccccc1)C2 (stereo not given) is greater than or equal to 7
Solution: 1

Problem: Is the recorded value of pIC50 equal to or greater than 7 for this compound? O=C(O)COc1cccc2c1CC[C@](O)(COC(=O)N(c1ccccc1)c1ccccc1)C2
Solution: 1

Problem: Decide: pIC50 of CC#CCC(C)[C@H](O)/C=C/[C@@H]1[C@H]2C/C(=C/CCCC(=O)O)C[C@H]2C[C@H]1O (stereo not given in full) [ILOPROST] >= 7?
Solution: 1

Problem: Does the compound O=C(O)COc1cccc2c1CC[C@H](COC(=O)N(c1ccccc1)c1ccccc1)C2O (single isomer, unassigned) have recorded pIC50 that is 7 or more?
Solution: -1

Problem: Textbook exercise: given the entry O=C(O)COc1cccc2c1CC[C@H](COC(=O)N(c1ccccc1)c1ccccc1)[C@H]2O , state whether its pIC50 is greater than or equal to 7.
Solution: -1

Problem: Quick check, pIC50 >= 7? O=C(O)COc1cccc2c1CC[C@@](O)(COC(=O)N(c1ccccc1)c1ccccc1)C2
Solution: -1

Problem: Item O=C(O)COc1cccc2c1CC[C@](O)(COC(=O)N(c1ccccc1)c1ccccc1)C2O (single isomer, unassigned) with pIC50 of 7 or above?
Solution: 1

Problem: Is pIC50 at least 7? Consider O=C(O)COc1cccc2c1CC[C@](O)(COC(=O)N(c1ccccc1)c1ccccc1)[C@H]2O
Solution: -1
